- Test system: Haemophilus influenzae
- experimental.details: In vitro antimicrobial activity against Haemophilus influenzae.
- Assay type: functional

cpd.smiles	relation	MIC [µg/mL]
CC[C@H]1OC(=O)C[C@@H](O)[C@H](C)[C@@H](O[C@@H]2O[C@H](C)[C@@H](O[C@H]3C[C@@](C)(O)[C@@H](O)[C@H](C)O3)[C@H](N(C)C)[C@H]2O)[C@@H](C)C[C@@H](C)C(=O)/C=C/C(C)=C/[C@@H]1CO[C@@H]1O[C@H](C)[C@@H](O)[C@@H](O)[C@H]1OC	>	128
CC[C@H]1OC(=O)C[C@@H](O)[C@H](C)[C@@H](O[C@@H]2O[C@H](C)[C@@H](O)[C@H](N(C)C)[C@H]2O)[C@@H](CCOc2ccc(CN3CCCCCC3)cc2)C[C@@H](C)C(=O)/C=C/C(C)=C/[C@@H]1CO[C@@H]1O[C@H](C)[C@@H](O)[C@@H](OC)[C@H]1OC	=	32
CC[C@H]1OC(=O)C[C@@H](O)[C@H](C)[C@@H](O[C@@H]2O[C@H](C)[C@@H](O)[C@H](N(C)C)[C@H]2O)[C@@H](C)C[C@@H](C)C(=O)/C=C/C(C)=C/[C@@H]1CO	=	4
CC[C@H]1OC(=O)C[C@@H](O)[C@H](C)[C@@H](O[C@@H]2O[C@H](C)[C@@H](O)[C@H](N(C)C)[C@H]2O)[C@@H](C)C[C@@H](C)C(=O)/C=C/C(C)=C/[C@@H]1CO[C@@H]1O[C@H](C)[C@@H](O)[C@@H](OC)[C@H]1OC	=	8
CC[C@H]1OC(=O)C[C@@H](O)[C@H](C)[C@@H](O[C@@H]2O[C@H](C)[C@@H](O[C@H]3C[C@@](C)(O)[C@@H](O)[C@H](C)O3)[C@H](N(C)C)[C@H]2O)[C@@H](CCOc2ccccc2)C[C@@H](C)C(=O)/C=C/C(C)=C/[C@@H]1CO[C@@H]1O[C@H](C)[C@@H](O)[C@@H](OC)[C@H]1OC	>	128
CC[C@H]1OC(=O)C[C@@H](O)[C@H](C)[C@@H](O[C@@H]2O[C@H](C)[C@@H](O[C@H]3C[C@@](C)(O)[C@@H](O)[C@H](C)O3)[C@H](N(C)C)[C@H]2O)[C@@H](CCSc2nnnn2C)C[C@@H](C)C(=O)/C=C/C(C)=C/[C@@H]1CO[C@@H]1O[C@H](C)[C@@H](O)[C@@H](OC)[C@H]1OC	>	128
CC[C@H]1OC(=O)C[C@@H](O)[C@H](C)[C@@H](O[C@@H]2O[C@H](C)[C@@H](O[C@H]3C[C@@](C)(O)[C@@H](O)[C@H](C)O3)[C@H](N(C)C)[C@H]2O)[C@@H](CCOc2ccc(C(=O)c3ccccc3)cc2)C[C@@H](C)C(=O)/C=C/C(C)=C/[C@@H]1CO[C@@H]1O[C@H](C)[C@@H](O)[C@@H](OC)[C@H]1OC	>	128
